Parameter: TGI. Scope: all listed entries.
- Test system: SN12C renal
- assayDetails: NCI tumour cell line growth inhibition, 48 h

Data request: Hi! What's the reported TGI for `CNNC(=NS(=O)(=O)c1cc(C#N)c(NNC)cc1S)NNC` on SN12C renal?
Data returned: > 10 µM

Data request: State its TGI on SN12C renal: `Clc1ccc2oc(CCc3ccccc3)nc2c1`
Data returned: > 100 µM

----------
- Test system: A549 NSCLC
- assayDetails: NCI tumour cell line growth inhibition, 48 h
Items are presented alongside their recorded TGI.

Use these answered entries as a reference point.
{"columns": ["molecule", "TGI"],
 "data": [
  ["COc1ccc2c3c1O[C@H](c1ccc(O)cc1)[C@H]3[N+](C)(C)CC2", "> 100 µM"],
  ["Clc1ccc2oc(CCc3ccccc3)nc2c1", "> 100 µM"],
  ["Cc1cc(=O)c2c(O)cc3c(c2o1)CC=C(COC1OC(COC2OC(CO)C(O)C(O)C2O)C(O)C(O)C1O)CO3 (stereo not drawn)", "> 100 µM"]
]}

Data request: Return TGI measured with A549 NSCLC given this molecule: O=C1NC2CCCCCC2C12CCCCC2 (stereo not drawn)
Data returned: > 100 µM

Data request: API: value(readout= TGI, system= A549 NSCLC, query= `COc1cc2cc(Oc3ccc(NC(=O)c4ccc(Cl)c(Cl)c4)cc3)c(C)nc2cc1OC` )
Data returned: > 100 µM

----------
- Test system: SF-268 CNS
- assayDetails: NCI tumour cell line growth inhibition, 48 h
Listed here: items and their measured TGI.

Worked set:
{"columns": ["compound", "TGI"],
 "data": [
  ["CCN(CCN(CC)C(=O)Nc1ccccc1)C(=O)Nc1ccccc1", "> 100 µM"],
  ["C[n+]1c2ccccc2nc2c(N)cc(N)cc21", "13.6 µM"],
  ["O=C(/C=C/c1ccc(Cl)c(Cl)c1)c1cccc2ccccc12", "14.2 µM"],
  ["N#CNc1nc(N)c(-c2ccc(Cl)cc2)c(C(=O)Nc2nccs2)n1", "> 100 µM"],
  ["ClC1=C(Cl)C(Cl)(Cl)c2c3c(c4c(c21)C(Cl)(Cl)C(Cl)=C4Cl)C(Cl)(Cl)C(Cl)=C3Cl", "> 100 µM"]
]}

Data request: Name the recorded TGI for COC(=O)C1CCC(=O)N1C(c1ccc2c(c1)OCO2)c1cc(OC)c(OC)c(OC)c1 (stereo not given) .
Data returned: > 100 µM

Data request: Fill in: TGI of `O=C(O)c1cc(CCc2cc(O)ccc2O)ccc1O` is ___
Data returned: > 100 µM

Data request: Field request: TGI | item: `COc1cccc(C(=O)C#Cc2cnc(OC)nc2OC)c1`
Data returned: 6.14 µM

Data request: Entry Cn1c(=O)n2n(c1=O)C(C)(C13CC4CC(CC(C4)C1)C3)C13CC4CC(CC1C4)CC23 (stereo not given) has what TGI?
Data returned: > 100 µM

Data request: // lookup TGI for Cc1ccc(C2C3Cc4ccccc4C3=NN2c2ccc(S(=O)(=O)/N=c3\scc(-c4ccccc4)n3-c3ccccc3)cc2)cc1 (stereo not given)
Data returned: 42 µM

Data request: TGI for CCN1C(=O)N(CC)C2C1NN=c1s/c(=C\c3ccc(F)cc3)c(=O)n12 (stereo not given) ?
Data returned: > 100 µM

Data request: State the recorded TGI for this entry: `CC1=NN(c2ccccc2)C(=O)/C1=C\c1ccc([N+](=O)[O-])cc1`
Data returned: > 100 µM

Data request: Using the record for `CCN(CC)c1nnc(CCCCCCCCc2nnc(N(CC)CC)o2)o1` , report its TGI.
Data returned: > 100 µM

Data request: Tell me the measured TGI of `COc1cc(C2(C)SCCCS2)cc(OC)c1OC` , please.
Data returned: > 100 µM

Data request: Query: TGI; subject: `Fc1ccc(/C=N/n2c(-c3ccc(F)c(Cl)c3)n[nH]c2=S)cc1`
Data returned: 42.1 µM

Data request: For the compound `COc1ccc(Nc2ccc([N+](=O)[O-])cc2[N+](=O)[O-])cc1CN(CCCl)CCCl` , what TGI is on record?
Data returned: 16.8 µM

Data request: For `COc1cc(CNc2nc3ccccc3nc2C(=O)O)cc(OC)c1OC` , what is its reported TGI?
Data returned: > 100 µM

Data request: Can you look up the measured TGI of CC(C)(C)NC(=O)CCC1C(C(=O)NC(C)(C)C)C2(Cl)C(Cl)=C(Cl)C1(Cl)C2(Cl)Cl (stereo not given) for me?
Data returned: > 100 µM

Data request: Could you share which TGI value was measured for `COc1cc(Nc2nc3cc(C(F)(F)F)ccc3n3cccc23)cc(OC)c1OC` ?
Data returned: > 100 µM

Data request: Entry COC(=O)C(C(=O)C(=O)Nc1ccc([N+](=O)[O-])cc1)c1nc2ccc([N+](=O)[O-])cc2[nH]c1=O (stereo not given) has what TGI?
Data returned: > 100 µM

----------
- Tested on: SNB-75 CNS
- assayDetails: NCI tumour cell line growth inhibition, 48 h
Examples of molecules with documented TGI follow.

{"columns": ["molecule", "valueObserved"],
 "data": [
  ["N#Cc1nc(C#N)n(S(=O)(=O)c2ccccc2)c1NS(=O)(=O)c1ccccc1", "> 100 µM"],
  ["CCCCNc1nc(NC2OCC(OC(C)=O)C(OC(C)=O)C2OC(C)=O)c(N=O)c(=O)n1C (stereo not drawn)", "> 10 µM"],
  ["O=C(Nc1ccccc1OC(=O)c1ccccc1)c1ccccc1", "> 100 µM"],
  ["Cn1c(=O)n2n(c1=O)C(C)(C13CC4CC(CC(C4)C1)C3)C13CC4CC(CC1C4)CC23 (stereo not drawn)", "> 100 µM"],
  ["Nc1n[nH]c2ccc([C@@H]3Nc4cc5c(cc4[C@H]4C6CCC(C6)[C@@H]34)C(=O)NC5)cc12 (stereo partly drawn)", "> 100 µM"]
]}

Data request: Could you share which TGI value was measured for COc1ccc(OC(=O)CC2Cc3cc(OC)c(OC)c(OC)c3-c3ccc(SC)c(=O)cc32)cc1 (stereo not drawn) ?
Data returned: > 100 µM

Data request: For the molecule `COc1ccc2c3c1O[C@H](c1ccc(O)cc1)[C@H]3[N+](C)(C)CC2` , what TGI is on record?
Data returned: > 100 µM

Data request: Fill in the blank: the reported TGI of `O=c1[nH]c2nc3ccccc3c(=O)n2/c1=C/c1ccco1` is ____.
Data returned: > 100 µM

Data request: Data request, read-out TGI, for `O=Nc1c(-c2c(O)[nH]c3ncccc23)[nH]c2ccccc12`
Data returned: > 100 µM

Data request: Entry `Nc1ncnc2c1ncn2[C@@H]1O[C@H](COC(c2ccccc2)(c2ccccc2)c2ccccc2)[C@@H](OC(=S)Oc2ccccc2)[C@@H]1F` has what TGI?
Data returned: 32.6 µM

Data request: Tell me the measured TGI of `CCOc1ccc(NC(=O)CCc2nnc(SC)o2)cc1` , please.
Data returned: > 100 µM

Data request: Report TGI for `Oc1cc(-n2cccn2)c(O)cc1-n1cccn1` please.
Data returned: > 97.3 µM

Data request: Would you kindly share the measured TGI for `COc1cc2c3c([nH]c2c(OC)c1OC)CCN(Cc1ccccc1)C3` ?
Data returned: > 100 µM

Data request: GET /values?readout=TGI&item= `C=C1CC[C@@H](C)[C@](C)(CCc2ccoc2)C/C=C\C=C/1C(=O)O`
Data returned: > 100 µM

Data request: # query: TGI of entry `CCN(CC)c1nnc(CCCCCCCCc2nnc(N(CC)CC)o2)o1`
Data returned: > 100 µM

Data request: What does the record list as TGI for `Cc1cc2c(cc1C)[n+](=O)c(C(=O)c1ccccc1)c(C(F)(F)F)n2[O-]` ?
Data returned: 10.7 µM

----------
- System: HOP-62 NSCLC
- assayDetails: NCI tumour cell line growth inhibition, 48 h; in the data active means GI50 below about 0.43 µM; inactive means the rest
Choose the fitting class; nothing outside active, inactive is accepted.

{"columns": ["lineNotation", "className"],
 "data": [
  ["Oc1cccc2c1NCCC2", "active"],
  ["O=Nc1c(-c2c(O)[nH]c3ncccc23)[nH]c2ccccc12", "inactive"],
  ["Cc1[nH]c(-c2cc(N)ccc2Cl)c2c1C(=O)CCCC2", "inactive"]
]}

Data request: // return assay outcome for `CCOC(=O)c1cc2c(cc1Cl)SC(=Nc1ccccc1)N(S(=O)(=O)c1ccc(Br)s1)S2(=O)=O`
Data returned: inactive

----------
- Tested on: HCT-15 colon
- assayDetails: NCI tumour cell line growth inhibition, 48 h
testReadout: TGI

Past entries and their recorded results:
{"columns": ["molecule", "testReadout", "valueObserved"],
 "data": [
  ["COc1ccc2c(c1)C(=O)c1c-2c(OCCN(C)C)nc2ccccc12", "TGI", "11.3 µM"],
  ["N#CCCNc1nonc1-c1nc2ccccc2n1CC(=O)c1ccc(NC(=O)[C@@H](N)CCCCN)cc1", "TGI", "> 100 µM"]
]}

Data request: Quick check: TGI of CCc1ccc2c(c1)N(CC(C)CN(C)C)c1ccccc1S2 (stereo not drawn) ?
Data returned: 17.8 µM

Data request: Value lookup for TGI; key = `Clc1ccc2oc(CCc3ccccc3)nc2c1`
Data returned: > 100 µM

Data request: Which TGI is listed for `Cn1ccnc1Oc1ccc(Cl)cc1` ?
Data returned: 23.9 µM

Data request: Record request: TGI value, item C=CCOc1ccc(C2C(C(=O)OC)C(=O)CC(O)(c3ccccc3)C2C(=O)OC)cc1OC (stereo not drawn)
Data returned: > 100 µM

Data request: May I ask what TGI has been recorded for `COc1cc(-c2nn(-c3cccc(NC(=O)CCN4CCN(Cc5ccccc5)CC4)c3)cc2-c2ccncc2)ccc1Cl` ?
Data returned: 3.72 µM

Data request: Data request, read-out TGI, for `CCOC(=O)/C(I)=C/c1cc(OC)c(OC)c(OC)c1`
Data returned: 17.1 µM
